Biological target: Phosphatidylinositol 4,5-bisphosphate 3-kinase catalytic subunit delta isoform (Homo sapiens) (UniProt O00329)
Sequence (O00329 whole entry, canonical isoform): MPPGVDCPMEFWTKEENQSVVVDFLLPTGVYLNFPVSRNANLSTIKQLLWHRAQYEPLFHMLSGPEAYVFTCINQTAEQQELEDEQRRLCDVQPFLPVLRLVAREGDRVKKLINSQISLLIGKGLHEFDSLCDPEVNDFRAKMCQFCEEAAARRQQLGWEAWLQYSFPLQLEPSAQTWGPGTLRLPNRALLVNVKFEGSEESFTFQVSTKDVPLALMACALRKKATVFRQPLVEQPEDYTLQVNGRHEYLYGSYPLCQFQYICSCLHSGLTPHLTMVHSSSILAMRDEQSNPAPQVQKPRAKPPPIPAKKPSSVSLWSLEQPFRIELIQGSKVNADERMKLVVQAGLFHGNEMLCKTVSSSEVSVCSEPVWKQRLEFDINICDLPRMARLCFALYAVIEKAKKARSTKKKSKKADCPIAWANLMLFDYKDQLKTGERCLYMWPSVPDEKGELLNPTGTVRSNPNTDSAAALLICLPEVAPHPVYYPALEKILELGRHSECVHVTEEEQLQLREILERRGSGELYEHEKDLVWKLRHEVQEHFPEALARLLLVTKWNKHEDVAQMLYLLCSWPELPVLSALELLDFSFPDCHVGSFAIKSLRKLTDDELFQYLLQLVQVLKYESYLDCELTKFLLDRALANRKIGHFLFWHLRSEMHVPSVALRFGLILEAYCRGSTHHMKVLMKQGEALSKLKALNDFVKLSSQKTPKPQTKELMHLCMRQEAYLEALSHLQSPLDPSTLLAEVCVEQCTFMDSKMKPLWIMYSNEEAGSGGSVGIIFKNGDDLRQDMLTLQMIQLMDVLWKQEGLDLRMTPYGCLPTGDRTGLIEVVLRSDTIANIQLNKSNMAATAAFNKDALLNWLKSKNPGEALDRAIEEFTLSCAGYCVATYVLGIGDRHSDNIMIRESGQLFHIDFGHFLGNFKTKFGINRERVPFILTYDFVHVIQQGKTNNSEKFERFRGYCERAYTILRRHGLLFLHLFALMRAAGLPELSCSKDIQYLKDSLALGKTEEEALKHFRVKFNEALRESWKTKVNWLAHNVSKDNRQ
Assay: Antagonist activity at PI3Kdelta (unknown origin) assessed as inhibition rate at 20 nM using PIP2 as substrate in presence of ATP incubated for 30 to 60 mins by ADP-glo based luminescence assay relative to control
Details: time 30-60 min
Reported Metric: inhibition (%)
Numbers only here, please. The scale is %.

Asked: Assign inhibition to the following record: CC(NC(=O)c1ccncc1N)c1cc2cccc(Cl)c2c(=O)n1-c1ccccc1 (configuration not stated)
Given back: 24

Asked: Assign inhibition to the following record: CCCc1ccc(C#Cc2cccc3cc(C(C)Nc4ncnc5[nH]cnc45)n(-c4ccccc4)c(=O)c23)cc1 (configuration not stated)
Given back: 8

Asked: Assign inhibition to the following record: COc1ccc(C#Cc2cccc3cc(C(C)NC(=O)c4cnn5cccnc45)n(-c4ccccc4)c(=O)c23)cc1 (configuration not stated)
Given back: 25

Asked: Assign inhibition to the following record: CC(NC(=O)c1c(N)nn2cccnc12)c1cc2cccc(C#Cc3ccc(C(F)(F)F)cc3)c2c(=O)n1-c1ccccc1 (configuration not stated)
Given back: 17

Asked: Assign inhibition to the following record: COc1ccc(C#Cc2cccc3cc(C(C)Nc4ncnc5[nH]cnc45)n(-c4ccccc4)c(=O)c23)cc1 (configuration not stated)
Given back: 16

Asked: Assign inhibition to the following record: CC(NC(=O)c1c(N)nn2cccnc12)c1cc2cccc(C#Cc3ccc(N(C)C)cc3)c2c(=O)n1-c1ccccc1 (configuration not stated)
Given back: 18

Asked: Assign inhibition to the following record: CC(NC(=O)c1c(N)nn2cccnc12)c1cc2cccc(C#CC3CC3)c2c(=O)n1-c1ccccc1 (configuration not stated)
Given back: 17

Asked: Assign inhibition to the following record: COCC#Cc1cccc2cc(C(C)Nc3ncnc4[nH]cnc34)n(-c3ccccc3)c(=O)c12 (configuration not stated)
Given back: 26

Asked: Assign inhibition to the following record: CCCCC#Cc1cccc2cc(C(C)Nc3ncnc4[nH]cnc34)n(-c3ccccc3)c(=O)c12 (configuration not stated)
Given back: 21

Asked: Assign inhibition to the following record: CC(Nc1ncnc2[nH]cnc12)c1cc2cccc(C#Cc3ccc(C(F)(F)F)cc3)c2c(=O)n1-c1ccccc1 (configuration not stated)
Given back: 14

Asked: Assign inhibition to the following record: CC(NC(=O)c1cncc(N2CCOCC2)n1)c1cc2cccc(Cl)c2c(=O)n1-c1ccccc1 (configuration not stated)
Given back: 14

Asked: Assign inhibition to the following record: CC(Nc1ncnc2c1ncn2C)c1cc2cccc(Cl)c2c(=O)n1-c1ccccc1 (configuration not stated)
Given back: 28

Asked: Assign inhibition to the following record: COCC#Cc1cccc2cc(C(C)NC(=O)c3c(N)nn4cccnc34)n(-c3ccccc3)c(=O)c12 (configuration not stated)
Given back: 27

Asked: Assign inhibition to the following record: CC(NC(=O)c1cncc2ccccc12)c1cc2cccc(Cl)c2c(=O)n1-c1ccccc1 (configuration not stated)
Given back: 3

Asked: Assign inhibition to the following record: CC(NC(=O)c1ccc2occc2c1)c1cc2cccc(Cl)c2c(=O)n1-c1ccccc1 (configuration not stated)
Given back: 8

Asked: Assign inhibition to the following record: CC(Nc1ncnc2[nH]cnc12)c1cc2cccc(C#Cc3ccc(N(C)C)cc3)c2c(=O)n1-c1ccccc1 (configuration not stated)
Given back: 14

Asked: Assign inhibition to the following record: CCCc1ccc(C#Cc2cccc3cc(C(C)NC(=O)c4c(N)nn5cccnc45)n(-c4ccccc4)c(=O)c23)cc1 (configuration not stated)
Given back: 27
